Hello, the source for this data is PubChem BioAssay (NCI), in case you need it.

The reader will find reported TGI values listed item by item below.
# Tested on: BT-549 breast
# PROTOCOL DETAILS: NCI tumour cell line growth inhibition, 48 h

*Q* Entry `CCOC(=O)c1c(C)n(Cc2ccccc2)c2c1cc(O)c1[nH]c3c(c12)CCCC3` : reported TGI = ?
*A* 24.6 µM

*Q* Entry NCCNCC(O)CO (stereo not given) : reported TGI = ?
*A* > 100 µM

*Q* Entry O=C(O)CCC1COc2ccccc2O1 (stereo not given) : reported TGI = ?
*A* > 10 µM

*Q* Entry `C=C(CN1CCN(c2cccc(C(F)(F)F)c2)CC1)c1ccc(C(=O)Nc2ccccc2N)cc1` : reported TGI = ?
*A* 5.06 µM

*Q* Entry `CC1=C/C(=N/N2C(=O)/C(=C/c3ccc(Cl)cc3)N=C2c2ccccc2)CC(C)(C)C1` : reported TGI = ?
*A* > 100 µM

*Q* Entry O=C(O)c1c(CC(Cc2ccc3c(c2)CCCC3)C(=O)O)ccc2c1CCCC2 (stereo not given) : reported TGI = ?
*A* > 100 µM

*Q* Entry OC1C(O)C(O)C(O)C(O)C1O (stereo not given) : reported TGI = ?
*A* > 1000 µM

*Q* Entry `O=C1CN(c2ccc(Cl)cc2)C(=O)CN1CCN1CC(=O)N(c2ccc(Cl)cc2)CC1=O` : reported TGI = ?
*A* > 100 µM

*Q* Entry Cn1c(C(C#N)c2cc(Cl)ncn2)nc2ccccc21 (stereo not given) : reported TGI = ?
*A* > 100 µM

*Q* Entry `Nc1ccn([C@H]2C[C@@H](O)[C@@H](CO)S2)c(=O)n1` : reported TGI = ?
*A* > 100 µM

----------
The reader will find reported TGI values listed item by item below.
# Test system: HS 578T breast
# PROTOCOL DETAILS: NCI tumour cell line growth inhibition, 48 h

Below, each entry is followed by its recorded TGI result.
*Q* Please state recorded TGI (tested on HS 578T breast) of OC(c1cccs1)c1cc2ccccc2s1 (configuration not stated)
*A* > 10 µM

*Q* Please state recorded TGI (tested on HS 578T breast) of `O=C(O)Cc1ccc(N2N=C(c3ccccc3)CC2=O)cc1`
*A* > 100 µM

---
*Q* Please state recorded TGI (tested on HS 578T breast) of `CN1CCN(c2ccc(-c3cnc4c(-c5csc6ccccc56)cnn4c3)cc2)CC1`
*A* > 15 µM

*Q* Please state recorded TGI (tested on HS 578T breast) of `COc1ccc2cc(C(=O)/C=C/c3cccc(Cl)c3Cl)ccc2c1`
*A* > 100 µM

*Q* Please state recorded TGI (tested on HS 578T breast) of O=C(O)CCC1COc2ccccc2O1 (configuration not stated)
*A* > 10 µM

*Q* Please state recorded TGI (tested on HS 578T breast) of `O=C(Oc1ccc([N+](=O)[O-])cc1)N1CCN(Cc2cccc(Oc3ccccc3)c2)CC1`
*A* > 100 µM

*Q* Please state recorded TGI (tested on HS 578T breast) of CO/N=C1\CCC2(O)C3Cc4ccc(O)c5c4C2(CCN3CC2CC2)[C@H]1O5 (some centres not stated)
*A* > 100 µM

----------
# Tested on: HOP-62 NSCLC
# PROTOCOL DETAILS: NCI tumour cell line growth inhibition, 48 h
The reader will find reported TGI values listed item by item below.

Below, each entry is followed by its recorded TGI result.
*Q* Entry `Cc1cc(=O)oc2cc(OC(=O)Nc3ccc(Cl)c(Cl)c3)ccc12` : reported TGI = ?
*A* 63.2 µM

*Q* Entry O=C(O)c1c(CC(Cc2ccc3c(c2)CCCC3)C(=O)O)ccc2c1CCCC2 (stereo unspecified) : reported TGI = ?
*A* > 100 µM

*Q* Entry `N#C/C(=C/C=C(\Cl)c1ccc(Cl)cc1)C(N)=O` : reported TGI = ?
*A* 4.33 µM

*Q* Entry `O=C(Nc1cnn2ccc(N3CCC[C@@H]3c3cc(F)ccc3F)nc12)N1CC[C@H](O)C1` : reported TGI = ?
*A* > 100 µM

*Q* Entry `C/C(=N\NC(=O)CC(=O)Nc1ccc(Cl)cc1)c1cc2ccccc2oc1=O` : reported TGI = ?
*A* > 100 µM

---
*Q* Entry C=C(C)C1Cc2c(cc(O)c3c(=O)c4ccccc4n(C)c23)O1 (stereo unspecified) : reported TGI = ?
*A* 61.3 µM

*Q* Entry `COc1ccc(/C=C(/C(=O)N2CCCC2)c2cc(OC)c(OC)c(OC)c2)cc1N` : reported TGI = ?
*A* > 100 µM

*Q* Entry COc1ccc(C2NCCc3c2[nH]c2ccccc32)cc1CN1CCN(c2ccc(F)cc2)CC1 (stereo unspecified) : reported TGI = ?
*A* 3.82 µM

*Q* Entry `O=C(O)Cc1ccc(N2N=C(c3ccccc3)CC2=O)cc1` : reported TGI = ?
*A* > 100 µM

----------
The reader will find reported TGI values listed item by item below.
# System: UO-31 renal
# PROTOCOL DETAILS: NCI tumour cell line growth inhibition, 48 h

Below, each entry is followed by its recorded TGI result.
*Q* Entry `Cc1cc(Cc2cc(C)c(NC(=O)C(=O)C3C(=O)NC(=S)NC3=O)c(C(C)C)c2)cc(C(C)C)c1NC(=O)C(=O)C1C(=O)NC(=S)NC1=O` : reported TGI = ?
*A* > 100 µM

*Q* Entry `CCCCCCCCCCCCCC/C(C(=O)OC)=C(/O)C(=O)OCC` : reported TGI = ?
*A* 53.5 µM

*Q* Entry `C=CCNC1=C(C(=O)OCC)C(=O)CO1` : reported TGI = ?
*A* > 100 µM

---
*Q* Entry `Cc1ccc(-c2ccc(Nc3c4ccccc4nc4ccccc34)cc2)cn1` : reported TGI = ?
*A* 13.2 µM

*Q* Entry C=CC1OC(CCCOC(=O)C(C)(C)C)O[C@@H]1CC (stereo partly drawn) : reported TGI = ?
*A* > 100 µM

*Q* Entry `Nc1ccn([C@H]2C[C@@H](O)[C@@H](CO)S2)c(=O)n1` : reported TGI = ?
*A* > 100 µM

*Q* Entry Cn1c(C(C#N)c2cc(Cl)ncn2)nc2ccccc21 (stereo not drawn) : reported TGI = ?
*A* > 100 µM

*Q* Entry CCOC(=O)CCC(NC(=O)c1ccc(CNc2nc3cc(N)cc(N)c3nc2-c2ccccc2)cc1)C(=O)OCC (stereo not drawn) : reported TGI = ?
*A* > 100 µM

----------
The reader will find reported TGI values listed item by item below.
# Tested on: HOP-62 NSCLC
# PROTOCOL DETAILS: NCI tumour cell line growth inhibition, 48 h

Below, each entry is followed by its recorded TGI result.
*Q* Entry NC1=NC(c2ccccc2)N=C(Nc2ccccc2)N1 (configuration not stated) : reported TGI = ?
*A* > 100 µM

*Q* Entry `C/C=C(/C)C(=O)O[C@@H]1c2c(C)coc2C[C@H]2CC[C@H](O)[C@H](C)[C@]21C` : reported TGI = ?
*A* > 100 µM

---
*Q* Entry `CC(C)(C)OC(=O)NCCCCCCCCn1c2c(c3ccccc3c1=O)C(=O)c1ccccc1-2` : reported TGI = ?
*A* 35 µM

*Q* Entry `CCSc1nc2sc(C)c(C)c2c(=O)n1-c1ccc(C(=O)O)cc1` : reported TGI = ?
*A* > 100 µM

----------
The reader will find reported TGI values listed item by item below.
# Test system: HOP-62 NSCLC
# PROTOCOL DETAILS: NCI tumour cell line growth inhibition, 48 h

Below, each entry is followed by its recorded TGI result.
*Q* Entry `CCC(C(=O)[O-])C(=O)[O-].CCC(C(=O)[O-])C(=O)[O-].N.N.NCCCCCN.[Pt+4].[Pt+4]` : reported TGI = ?
*A* > 100 µM

*Q* Entry `COC(=O)c1ccccc1NC(=O)C(=O)CC(=O)c1ccccc1NC1=CC(=O)C(=O)c2ccccc21` : reported TGI = ?
*A* > 74.8 µM

---
*Q* Entry `O=c1cccc(C#Cc2ccccc2)o1` : reported TGI = ?
*A* 15.4 µM
